System: TNF-alpha production by PBMC
Assay Summary: TNF-alpha assay, LPS-stimulated PBMC, sandwich ELISA
Assay type: cell-based, human
Condition: Table 7; same conditions as example 26; read-out: TNFα IC50
Lab note: compare IC50 with 3 µM, writing fulfilled if less and not fulfilled if equal or more.

Recorded results for 8 compounds are shown here.
Cn1c(=O)n(Cc2ccccc2)c(=O)c2nc(-c3ccccc3)c(Cl)nc21    not fulfilled
CCOC(=O)Cn1c(=O)c2nc(-c3ccccc3)c(Cl)nc2n(C)c1=O    not fulfilled
Cn1c(=O)[nH]c(=O)c2nc(-c3ccc(F)cc3)c(Cl)nc21    not fulfilled
Cn1c(=O)n(CCO)c(=O)c2nc(-c3ccccc3)c(Cl)nc21    fulfilled
Cn1c(=O)n(CCN2CCOCC2)c(=O)c2nc(-c3ccccc3)c(Cl)nc21    fulfilled
Cn1c(=O)[nH]c(=O)c2nc(-c3ccc(C#N)cc3)c(Cl)nc21    fulfilled
O=c1[nH]c(=O)n(Cc2ccccc2)c2nc(Cl)c(-c3ccccc3)nc12    not fulfilled
Cn1c(=O)[nH]c(=O)c2nc(-c3ccc(Cl)cc3)c(Cl)nc21    not fulfilled

Task: Is IC50 of CCCCOC(=O)NCCn1c(=O)c2nc(-c3ccccc3)c(Cl)nc2n(C)c1=O strictly below 3 µM?
Output: not fulfilled

Task: Next: Cn1c(=O)n(CCN2CCCCC2)c(=O)c2nc(-c3ccccc3)c(Cl)nc21
Output: not fulfilled

Task: Next: Cn1c(=O)c2nc(-c3ccccc3)c(Cl)nc2n(CCO)c1=O
Output: fulfilled

Task: Next: CCOC(=O)CCCn1c(=O)c2nc(-c3ccc(OC)cc3)c(Br)nc2n(C)c1=O
Output: fulfilled

###

# pIC50 values compiled below
System: TNF-alpha production by PBMC
Assay Summary: TNF-alpha assay, LPS-stimulated PBMC, sandwich ELISA
Type: cell-based, human
Condition: Table 7; same conditions as example 26; read-out: TNFα IC50
Reminder that pIC50 means the negative base-10 logarithm of the concentration expressed in mol/L.

# annotated cases, reported pIC50 shown
CCOC(=O)CCCn1c(=O)c2nc(-c3ccccc3)c(Br)nc2n(C)c1=O    5.26
Cc1ccc(-c2nc3c(=O)[nH]c(=O)n(C)c3nc2Cl)cc1    5.96
Cn1c(=O)n(CCN2CCOCC2)c(=O)c2nc(-c3ccccc3)c(Br)nc21    5.77

Task: Name the reported pIC50 value associated with the molecule CCOC(=O)CCCn1c(=O)c2nc(-c3ccc(OC)c(OC)c3)c(Cl)nc2n(C)c1=O
Output: 6.22

Task: Next: CCOC(=O)CCCn1c(=O)c2nc(-c3ccccc3)c(Cl)nc2n(CC)c1=O
Output: 5.51

Task: Next: CCCNC(=O)CCCn1c(=O)c2nc(-c3ccccc3)c(Cl)nc2n(C)c1=O
Output: 5.27

Task: Next: COc1ccc(-c2nc3c(=O)n(CCCC(=O)OC(C)C)c(=O)n(C)c3nc2Br)cc1OC
Output: 6.15

Task: Next: COc1cccc(OC)c1-c1nc2c(=O)[nH]c(=O)n(C)c2nc1Cl
Output: 5.23

Task: Next: Cn1c(=O)c2nc(-c3ccccc3)c(Cl)nc2n(Cc2ccccc2)c1=O
Output: 6.15

Task: Next: CCOC(=O)CCCn1c(=O)c2nc(-c3ccc(OC)cc3)c(F)nc2n(C)c1=O
Output: 5.31
